ASSAY_NOTES: solvent given as SMILES
EXPERIMENTAL_SETUP: in CC#N

{"COMPOUND": "Cc1ccc(-n2c3ccccc3c3cc(C(=C(C#N)C#N)c4ccccc4)ccc32)cc1", "absorption maximum": "445 nm"}
{"COMPOUND": "CCN(CC)c1ccc(-n2c(C)ccc2C)cc1", "absorption maximum": "304 nm"}
{"COMPOUND": "C[C@]12SC(=O)C=C1c1nc(-c3ccc(Cl)cc3)[nH]c1C1=CC(=O)S[C@@]12C", "absorption maximum": "451 nm"}
{"COMPOUND": "COC(=O)C(NC(=O)OC(C)(C)C)c1ccc2oc(-c3cc(OC)ccc3OC)nc2c1 (configuration not stated)", "absorption maximum": "333 nm"}
{"COMPOUND": "CN(C)c1ccc(C2=Nc3scc[n+]3[B-](F)(F)O2)cc1", "absorption maximum": "402 nm"}
{"COMPOUND": "CC1(C)CC(=O)c2cc(F)cc(F)c2N1", "absorption maximum": "377 nm"}
{"COMPOUND": "Cc1ccc(-c2cc(C)[o+]c(C)c2)cc1", "absorption maximum": "347 nm"}
{"COMPOUND": "CCCC(=O)c1c2c(c(C(=O)CCC)c3c1OC(CC(=O)OC)(C(=O)OC)O3)OCO2", "absorption maximum": "423 nm"}
{"COMPOUND": "CCC1(CC)c2cc(N(C)C)ccc2-c2ccc(C(F)(F)F)cc21", "absorption maximum": "302 nm"}
{"COMPOUND": "O=C1Nc2ccccc2/C1=C/C(=O)c1ccc(Cl)cc1Cl", "absorption maximum": "334 nm"}
{"COMPOUND": "CC(=O)c1cc(=O)n(C)c2cc(-c3ccc(N(C)C)cc3)sc12", "absorption maximum": "440 nm"}
{"COMPOUND": "CN(C)c1ccc2nc3c(cc2c1)c(-c1ccccc1)nn3-c1ccccc1", "absorption maximum": "449.24 nm"}
{"COMPOUND": "CCOC(=O)c1c2c3c(ccc(Br)c3c3cc4ccccc4cc13)N(C)C2=O", "absorption maximum": "404 nm"}
{"COMPOUND": "COc1ccc(/C=C/C2=NC(=C\\c3ccncc3)/C(=O)N2C)cc1", "absorption maximum": "428 nm"}
{"COMPOUND": "CCCCCCCCN1c2ccc(C#Cc3ccc(OC)cc3)cc2Sc2cc(C=O)ccc21", "absorption maximum": "380.01 nm"}
{"COMPOUND": "C#CCN1C(=O)/C(=C/c2cc(OC(C)C)ccc2OC(C)C)N=C1C", "absorption maximum": "395 nm"}
{"COMPOUND": "Cc1ccc2c(c1)C(=O)c1ccncc1-2", "absorption maximum": "408.95 nm"}

---

ASSAY_NOTES: solvent given as SMILES
EXPERIMENTAL_SETUP: in ClC(Cl)Cl
QUANTITY_NAME: absorption maximum (nm)

{"MOLECULE": "CC[N+](CC)=c1ccc2c(-c3ccccc3C(=O)O)c3c(=O)oc4c5c6c(cc4c3oc-2c1)CCCN6CCC5", "ASSAY_VALUE": 623}
{"MOLECULE": "CC(=O)c1c2c(cc3c(N(C)C)cccc13)CCC2", "ASSAY_VALUE": 334}
{"MOLECULE": "Cc1cc(C)c(C2=C3C=CC=[N+]3[B-]3(F)Oc4cc(O)cc5c6ccc(C)cc6c6cc2n3c6c45)c(C)c1 (centres undefined)", "ASSAY_VALUE": 629}
{"MOLECULE": "CCCCCCCCc1ccc(-c2c3cc(-c4cc(CCCCCCCC)c(-c5ccc(-c6sc(/C=C7\\SC(=S)N(CC)C7=O)cc6CCCCCCCC)s5)s4)sc3c(-c3ccc(CCCCCCCC)s3)c3cc(-c4cc(CCCCCCCC)c(-c5ccc(-c6sc(/C=C7\\SC(=S)N(CC)C7=O)cc6CCCCCCCC)s5)s4)sc23)s1", "ASSAY_VALUE": 509}
{"MOLECULE": "N#CC(C#N)=Cc1cn(-c2ccccc2)nc1-c1ccc([N+](=O)[O-])cc1", "ASSAY_VALUE": 352}
{"MOLECULE": "c1cc2ccc1CCCc1ccc(c3nsnc13)CCC2", "ASSAY_VALUE": 384}
{"MOLECULE": "CC(C)(C)c1ccc2c(c1)c1cc(C(C)(C)C)ccc1n2-c1cccc(-c2nc(-c3cccc(P(=O)(c4ccccc4)c4ccccc4)c3)nc(-c3cccc(P(=O)(c4ccccc4)c4ccccc4)c3)n2)c1", "ASSAY_VALUE": 343}
{"MOLECULE": "COc1ccc(-n2c3ccccc3c3cc(/C=C/C(=C(C#N)C#N)c4ccccc4)ccc32)cc1", "ASSAY_VALUE": 459}
{"MOLECULE": "CCCCn1cc(/C=C/c2cc(=O)oc3cc(C)ccc23)c2ccccc21", "ASSAY_VALUE": 398}
{"MOLECULE": "COC(=O)/C(C#N)=C/c1cn(-c2ccccc2)nc1-c1ccc([N+](=O)[O-])cc1", "ASSAY_VALUE": 339}
{"MOLECULE": "C[Si](C)(C)C#Cc1c2c(=O)c3ccccc3c2c(C#C[Si](C)(C)C)c2c(=O)c3ccccc3c12", "ASSAY_VALUE": 524}
{"MOLECULE": "CCC1=C(C)C2=C(C)c3c(C)c(-c4csc(N5CCOCC5)n4)c(C)n3[B-](F)(F)[N+]2=C1C", "ASSAY_VALUE": 523}
{"MOLECULE": "CC1=CC(C)=[N+]2C1=C(C1=C3C(C)=CC(C)=[N+]3[B-](F)(F)n3c(C)cc(C)c31)c1c(C)cc(C)n1[B-]2(F)F", "ASSAY_VALUE": 515}
{"MOLECULE": "Cc1cc(C)c(C2=C3C=CC4=[N+]3[B-]3(Oc5ccccc54)Oc4ccccc4-c4ccc2n43)c(C)c1 (centres undefined)", "ASSAY_VALUE": 626}
{"MOLECULE": "N#CC1=CC=CC(C#N)=P1(c1ccccc1)c1ccccc1", "ASSAY_VALUE": 458}
{"MOLECULE": "[C-]#[N+]c1ccc(-c2ccc(N)cc2)cc1", "ASSAY_VALUE": 305}
{"MOLECULE": "COc1c(/C=N/Nc2ccc(C#N)cc2)ccc2ccccc12", "ASSAY_VALUE": 385}
{"MOLECULE": "CC(=O)c1c2c(cc3cc(N(C)C)ccc13)CCC2", "ASSAY_VALUE": 373}
{"MOLECULE": "CC(C)c1cccc(C(C)C)c1-n1c(=O)c2cc3nc(-c4ccccc4)c4cc5c(=O)n(-c6c(C(C)C)cccc6C(C)C)c(=O)c6cc7nc(-c8ccccc8)c8cc(c1=O)c2c1c3c4c(c65)c7c81", "ASSAY_VALUE": 488}
{"MOLECULE": "CN(C)c1ccc2nc(-c3ccc(C(=O)OC[C@H](NC(=O)OC(C)(C)C)C(=O)OCc4ccccc4)cc3)sc2c1", "ASSAY_VALUE": 401}
{"MOLECULE": "F[B-]1(F)n2c(-c3ccccc3)cnc2-c2cccc[n+]21", "ASSAY_VALUE": 369}
{"MOLECULE": "CC(=O)OCCN1C(=O)c2cccc3c(Oc4ccc(C=O)cc4)ccc(c23)C1=O", "ASSAY_VALUE": 353}
{"MOLECULE": "Cc1ccc(C2=Cc3c4ccccc4c4ccccc4[n+]3[B-](F)(F)O2)cc1", "ASSAY_VALUE": 437}
{"MOLECULE": "CC1=[N+]2C(=C(c3c4ccccc4cc4ccccc34)c3ccc(C)n3[B-]2(F)F)C=C1", "ASSAY_VALUE": 518}
{"MOLECULE": "Cc1ccc(C2=C3C=CC(/C=C/c4ccccc4)=[N+]3[B-](F)(F)n3c(Cl)ccc32)cc1", "ASSAY_VALUE": 571}
{"MOLECULE": "COc1cc(-c2nnc(-c3ccc4ccc5cccc6ccc3c4c56)o2)cc(OC)c1OC", "ASSAY_VALUE": 396}
{"MOLECULE": "CCN(CC)c1ccc(/C=N/Nc2ccc(C#N)cc2)c(O)c1", "ASSAY_VALUE": 373}
{"MOLECULE": "C(#Cc1ccc(C#Cc2ccccc2)cc1)c1ccccc1", "ASSAY_VALUE": 328}
{"MOLECULE": "O=c1oc2ccccc2cc1-c1nc2ccccc2o1", "ASSAY_VALUE": 356}
{"MOLECULE": "C[N+]1=C(/C=C/C2=C3Oc4c(cc5c6c4CCCN6CCC5)C(c4ccccc4C(=O)O)=C3CCC2)C(C)(C)c2ccccc21", "ASSAY_VALUE": 730}
{"MOLECULE": "CCCCCCCCCCCCOc1cc2c3c(ccc4c5c(SCCCCCCCCCCCC)cc6c7c(ccc(c1c34)c75)C(=O)N(C1CCCCC1)C6=O)C(=O)N(C1CCCCC1)C2=O", "ASSAY_VALUE": 568}
{"MOLECULE": "CCC1(CC)c2cc(B(c3c(C)cc(C)cc3C)c3c(C)cc(C)cc3C)ccc2-c2ccc(N(c3ccccc3)c3ccccc3)cc21", "ASSAY_VALUE": 402}
{"MOLECULE": "CCCCCCCCC1(CCCCCCCC)c2cc(C=O)ccc2-c2ccc(/C=C/c3ccc(N(c4ccccc4)c4ccccc4)cc3)cc21", "ASSAY_VALUE": 409}
{"MOLECULE": "CC[N+](CC)=c1ccc2c(-c3ccccc3C(=O)O)c3c(=O)oc4cc5c(cc4c3oc-2c1)CCCN5C", "ASSAY_VALUE": 610}
